Biological target: cloned human H3 receptor, stably expressed in SK-N-MC cells (Homo sapiens)
Sequence (Q9Y5N1 whole entry): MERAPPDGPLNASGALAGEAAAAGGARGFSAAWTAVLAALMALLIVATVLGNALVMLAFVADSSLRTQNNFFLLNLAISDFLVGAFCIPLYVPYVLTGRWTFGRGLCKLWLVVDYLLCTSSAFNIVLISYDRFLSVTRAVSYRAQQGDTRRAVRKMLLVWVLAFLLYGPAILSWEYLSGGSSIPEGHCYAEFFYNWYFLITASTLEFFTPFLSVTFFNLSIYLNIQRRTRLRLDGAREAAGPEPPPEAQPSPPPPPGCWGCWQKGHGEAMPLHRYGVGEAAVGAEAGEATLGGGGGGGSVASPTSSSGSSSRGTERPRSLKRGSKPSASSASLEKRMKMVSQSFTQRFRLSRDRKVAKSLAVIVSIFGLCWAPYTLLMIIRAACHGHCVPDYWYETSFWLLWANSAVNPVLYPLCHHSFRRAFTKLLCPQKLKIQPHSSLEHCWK
QUANTITY_KIND: Ki
Field note: include the unit after the figure.

Some solved cases for reference:
COMPOUND | REPORTED
Clc1cccc([C@H]2CN3CCC[C@H]3c3cc(OCCCN4CCCCC4)ccc32)c1 (relative stereo) [Example 11B] | 1 nM
Oc1ccc([C@H]2CN3CCC[C@H]3c3cc(OCCCN4CCCCC4)ccc32)cc1 (relative stereo) [Example 9A] | 2 nM

Please examine the following record next.
Please give the measured Ki for this compound: Clc1cccc([C@@H]2CN3CCC[C@H]3c3cc(OCCCN4CCCCC4)ccc32)c1 (relative stereo) [Example 11A]
1 nM
